System: live vaccine strain (LVS, type B)
Assay: microbe, parasite or virus in culture
Format: cell-based, F. tularensis
Settings: Francisella tularensis, 48 h
As shown below, each of these compounds has a reported MIC value.

Record excerpt, results attached:
(Q) Report MIC for Nc1ccc(-n2nc(C(F)(F)F)cc2-c2ccc(-c3ccc(Br)cc3)cc2)cc1 please.
(A) ≤ 4 µg/mL

(Q) Report MIC for Nc1ccc(-n2nc(C(F)(F)F)cc2-c2ccc(-c3ccccc3)cc2)cc1 please.
(A) ≤ 4 µg/mL

(Q) Report MIC for NC(=O)c1ccc(-n2nc(C(F)(F)F)cc2-c2ccc(-c3ccc(Cl)cc3)cc2)cc1 please.
(A) ≤ 4 µg/mL

(Q) Report MIC for Cc1ccc(-c2cc(C(F)(F)F)nn2-c2ccc(S(N)(=O)=O)cc2)cc1 [celecoxib, reference compound] please.
(A) 16 µg/mL

Please find the next compound below.
(Q) Report MIC for NS(=O)(=O)c1ccc(-n2nc(C(F)(F)F)cc2-c2ccc(-c3ccc(Cl)cc3)cc2)cc1 please.
(A) ≤ 4 µg/mL
